B1: ESR2 (parent)
chain: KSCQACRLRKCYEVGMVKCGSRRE

# Variants of: B1
# Experiment Notes: protein stability index of a GFP-peptide fusion (GPS, HEK-293T) (PSI 1-6); higher = more stable;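 further: lentivirally expressed fusions sorted by FACS into six bins by GFP to DsRed ratio, PSI derived from sequencing read proportions per bin multiplied by bin number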
# Condition Summary: c terminus: a fixed tail appended
Threshold rule: protein stability index greater than or equal to 2 is Yes; below that, No.

Illustrative cases are given below, each with its answer.
[
  {
    "Mutant Label": "A5Y",
    "Class Name": "No"
  },
  {
    "Mutant Label": "A5G",
    "Class Name": "No"
  },
  {
    "Mutant Label": "E24H",
    "Class Name": "No"
  },
  {
    "Mutant Label": "K10S",
    "Class Name": "Yes"
  },
  {
    "Mutant Label": "R22K",
    "Class Name": "Yes"
  },
  {
    "Mutant Label": "Q4A",
    "Class Name": "No"
  },
  {
    "Mutant Label": "R23N",
    "Class Name": "Yes"
  },
  {
    "Mutant Label": "S2Y",
    "Class Name": "Yes"
  },
  {
    "Mutant Label": "V14E",
    "Class Name": "No"
  },
  {
    "Mutant Label": "K1G",
    "Class Name": "Yes"
  }
]

Request: Hi team, for G20V , is the recorded protein stability index at or above 2?
Result: No

Request: Determine whether measured protein stability index meets or exceeds 2 for S21Y
Result: No
